Quick reference: IC50 of the listed items.
Target: CB1 (mutant) (Homo sapiens, UniProt P21554)
Sequence (P21554 1-417, change not shown): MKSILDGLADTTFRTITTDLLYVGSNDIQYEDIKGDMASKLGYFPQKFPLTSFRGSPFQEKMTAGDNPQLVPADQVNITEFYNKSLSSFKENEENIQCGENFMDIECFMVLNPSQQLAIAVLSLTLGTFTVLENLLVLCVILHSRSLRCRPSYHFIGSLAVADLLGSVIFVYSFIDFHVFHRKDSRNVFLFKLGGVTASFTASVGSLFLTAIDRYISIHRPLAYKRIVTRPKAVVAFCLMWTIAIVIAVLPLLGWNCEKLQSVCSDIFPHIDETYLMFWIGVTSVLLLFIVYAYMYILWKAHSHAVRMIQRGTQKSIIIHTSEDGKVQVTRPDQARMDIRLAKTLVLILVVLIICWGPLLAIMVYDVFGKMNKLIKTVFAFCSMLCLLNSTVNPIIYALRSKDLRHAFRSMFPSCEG
Assay: R-SAT functional receptor assay, CB1 (mutant, truncated after amino acid 417)
Format: cell-based
Details: Appendix A; R-SAT CB1; receptor form (mutant or wild-type) not stated; read-out: pIC50 (converted)
experimental-readout: IC50 (nM)

[
  {
    "molecule": "O=C(NCCc1ccncc1)c1ccc2c(c1)N=C(c1ccc(Cl)c(Cl)c1)c1ccccc1S2 [drawing 1095]",
    "recorded-number": 31.6
  },
  {
    "molecule": "O=C(NN1CCCC1)c1ccc2c(c1)N=C(c1ccccc1F)c1ccccc1S2",
    "recorded-number": 200
  },
  {
    "molecule": "O=C(Cc1ccccc1)NNC(=O)c1ccc2c(c1)N=C(c1ccc(F)cc1)c1ccccc1S2 [drawing 840]",
    "recorded-number": 158
  },
  {
    "molecule": "Cc1cccc(C2=Nc3cc(C(=O)NCc4ccc(C)o4)ccc3Sc3ccccc32)n1 [drawing 805]",
    "recorded-number": 10
  }
]

###

Recorded Emax values for a group of molecules are listed next.
Molecular target: CB1 (mutant) (Homo sapiens)
Assay: R-SAT functional receptor assay, CB1 (mutant, truncated after amino acid 417)
Assay type: cell-based
Conditions: Appendix A; R-SAT CB1; receptor form not stated; relative to SR141716 (100%); read-out: % Inhibition

[
  {
    "molecule": "O=C(NCCc1ccc(Cl)cc1)c1ccc2c(c1)N=C(c1ccccc1F)c1ccccc1S2 [drawing 1085]",
    "target-under-test": "CB1 (mutant) (Homo sapiens)",
    "Emax (%)": 101
  },
  {
    "molecule": "Cc1ccsc1C1=Nc2cc(C(=O)NCCC(C)C)ccc2Sc2ccccc21 [drawing 945]",
    "target-under-test": "CB1 (mutant) (Homo sapiens)",
    "Emax (%)": 106
  },
  {
    "molecule": "CC(C)CNC(=O)c1ccc2c(c1)N=C(c1ccc(Cl)cc1)c1ccc(F)cc1S2 [drawing 949]",
    "target-under-test": "CB1 (mutant) (Homo sapiens)",
    "Emax (%)": 110
  },
  {
    "molecule": "CCN(CCNC(=O)c1ccc2c(c1)N=C(C1CCCCC1)c1ccccc1S2)c1ccccc1 [drawing 865]",
    "target-under-test": "CB1 (mutant) (Homo sapiens)",
    "Emax (%)": 105
  },
  {
    "molecule": "CCCCN(C)C(=O)c1ccc2c(c1)N=C(c1ccccn1)c1ccccc1S2",
    "target-under-test": "CB1 (mutant) (Homo sapiens)",
    "Emax (%)": 57
  }
]

###

Biological target: CB1 (mutant) (Homo sapiens, UniProt P21554)
Assay: R-SAT functional receptor assay, CB1 (mutant, truncated after amino acid 417)
Assay type: cell-based
Details: Appendix A; R-SAT CB1; receptor form not stated; relative to SR141716 (100%); read-out: % Inhibition
experimental-readout: Emax (%)

[
  {
    "compound": "O=C(NCCCC(F)(F)F)c1ccc2c(c1)N=C(c1ccc(Cl)cc1)c1ccccc1S2 [drawing 601]",
    "recorded-number": 105
  },
  {
    "compound": "O=C(NCCCC(F)(F)F)c1ccc2c(c1)N=C(c1cccc(F)c1)c1ccccc1S2 [drawing 547]",
    "recorded-number": 100
  },
  {
    "compound": "Cc1ccsc1C1=Nc2cc(C(=O)NN3[C@H](C)CCC[C@@H]3C)ccc2Sc2ccccc21 [drawing 772]",
    "recorded-number": 89
  },
  {
    "compound": "C[C@@H]1CCC[C@H](C)N1NC(=O)c1ccc2c(c1)N=C(c1ccc(F)cc1)c1ccccc1S2 [drawing 943]",
    "recorded-number": 115
  },
  {
    "compound": "O=C(NCCc1ccccc1)c1ccc2c(c1)N=C(c1ccccc1)c1ccccc1S2 [drawing 1023]",
    "recorded-number": 106
  }
]
